Reference source for all entries: PubChem BioAssay AID1985

assay: PhoP regulon inhibitor project modified counter assay, GFP fluorescence readout, dose response (AID 1985); details: S. Typhi, 4 h; series mostly up to 150 µM
The whole screen tested about 2,300 compounds, of which about 1,000 (43%) were called active. So high a share suggests a set chosen from earlier hits. Some of the results follow. Potency and affinity values are given separately.
READOUT_KIND: outcome

{"COMPOUND": "O=C1c2ccccc2C(=O)N1CCC(c1ccccc1)c1ccco1 (configuration not stated)", "outcome": "inactive"}
{"COMPOUND": "O=Cc1ccc(N2CCCCCC2)cc1", "outcome": "inactive"}
{"COMPOUND": "NC1=NC[C@H](Cc2ccc(O)cc2)N1CCc1cccc2ccccc12", "outcome": "inactive"}
{"COMPOUND": "Nc1cc(=O)[nH]c(=S)n1-c1cccc(C(F)(F)F)c1", "outcome": "inactive"}
{"COMPOUND": "COc1ccc(CN2CCSCC2)cc1C", "outcome": "inactive"}
{"COMPOUND": "CN1Cc2ccccc2N(CC(=O)NCc2ccccc2)C1=O", "outcome": "inactive"}
{"COMPOUND": "O=C(N/N=C/c1ccc(N2CCOCC2)cc1)c1ccc(O)cc1", "outcome": "inactive"}
{"COMPOUND": "Cc1ccc(OCC(=O)N2CCN(S(C)(=O)=O)CC2)cc1", "outcome": "inactive"}
{"COMPOUND": "CN1C(=O)c2ccc(NC(=O)C3CCCCC3)cc2C1=O", "outcome": "inactive"}
{"COMPOUND": "CCCCNC(=S)Nc1ccc([N+](=O)[O-])cc1", "outcome": "inactive"}

Return outcome (reported value) for this compound: CCC(C)(C)NC(=O)COc1ccc(C(=O)c2ccccc2)cc1
inactive

Let me know recorded outcome for COc1ccc(Cl)cc1NC(=O)c1cc(-c2ccccc2)on1 , thanks.
inactive
